// data source = ChEMBL document CHEMBL1151756

# System: MT2
# MEASUREMENT_PROTOCOL: Cytotoxicity against human MT2 cells after 4 days by XTT assay
# Assay type: cell-based
# REPORTED_CONDITIONS: mt2, 96 h
The entries below come with measured CC50 values attached.

O=C(O)c1ccc(N2C(=O)C=CC2=O)cc1O; > 400 µM
Nc1nnc(-c2ccc(C(=O)O)cc2)s1; > 400 µM

Then this compound:
The recorded CC50 for entry `O=C(O)c1ccc(N2C(=O)C=CC2=O)cc1` equals > 400 µM

###

# MEASUREMENT_PROTOCOL: Selectivity index, ratio of CC50 for human MT2 cells to EC50 for HIV1 3B
# Assay type: toxicity, cell-based
# REPORTED_CONDITIONS: read-out: Ratio CC50/EC50
MEASURED_ATTRIBUTE: selectivity ratio

Known results for compounds:
COC(=O)c1ccc(-n2cccc2)cc1O; 10.7
COC(=O)c1ccc(-c2noc(CBr)n2)cc1; 0.37

Then this compound:
The recorded selectivity ratio for entry `O=C(O)c1ccc(-n2cccc2)cc1O` equals 5.42
